Consider the following compounds; for each one, report its growth.
System: SK-MEL-2 melanoma
Experiment notes: NCI-60 one-dose screen, 48 h (100 = growth as untreated, 0 = no growth, -100 = all killed)
Measurement setup: 10 µM unless noted
Compounds without any hit were thinned out: in the full panel of roughly 83,000, 20% have a hit.
Answers are plain numbers, in %.

Record excerpt, results attached:
Substance smiles: Cn1cc(-c2nc(-c3c[nH]c4c(Cl)nccc34)cs2)c2cc(Br)ccc21
Number: 87.6
--
Substance smiles: O=S(=O)(NCCCNc1nccc(-c2c(-c3cccc(O)c3)nc3occn23)n1)c1ccc(Cl)cc1
Number: 52.5
--
Substance smiles: COc1cc2c(c(O)c1Cl)C(=O)c1c(O)cc(C[C@H](C)O)cc1[C@H]2[C@H]1c2cc(C[C@H](C)O)cc(O)c2C(=O)c2c1cc(OC)c(Cl)c2O
Number: -31.6
--
Substance smiles: CCCN1[C@@H]2CC[C@H]1/C(=C\c1ccc(OC)c(OC)c1)C(=O)/C2=C/c1ccc(OC)c(OC)c1
Number: 53.6

Qu. What value of growth has been recorded for this entry: COC(=O)/C=C1\S/C(=N\NC(=O)c2cc3ccc2/C=C\c2ccc(cc2)/C=C\3)N(Cc2ccccc2)C1=O
Ans. 85.6

---

System: IGROV1 ovarian
Experiment notes: NCI-60 one-dose screen, 48 h (100 = growth as untreated, 0 = no growth, -100 = all killed)
Measurement setup: 10 µM unless noted
Compounds without any hit were thinned out: in the full panel of roughly 83,000, 20% have a hit.
So basically: is growth under 80%? Then fulfilled. Not under? Then not fulfilled.

Molecule: OCc1cnccc1NCCCCOc1ccc(Oc2ccccc2)cc1
Qualitative label: fulfilled

Qu. Please indicate whether the reported growth of N/C(=N\C(N)=N\c1nc2ccccc2s1)c1ccnc(Br)c1 is strictly below 80%.
Ans. fulfilled

Qu. Please indicate whether the reported growth of O=C(N/N=C/c1cc2ccccc2n2nnnc12)Nc1ccccc1 is strictly below 80%.
Ans. not fulfilled

Qu. Please indicate whether the reported growth of CCc1c(Cl)nc(N)nc1Nc1ccc(C)c(C)c1 is strictly below 80%.
Ans. not fulfilled

Qu. Please indicate whether the reported growth of Cc1nc2ccc(Cl)cn2c1-c1nnc(SCc2ccc([N+](=O)[O-])cc2)o1 is strictly below 80%.
Ans. fulfilled

Qu. Please indicate whether the reported growth of COc1ccc(/C=C(\C#N)n2nc3cccc(F)c3n2)cc1 is strictly below 80%.
Ans. not fulfilled

Qu. Please indicate whether the reported growth of C/C(=N\Nc1cc(C)nc2ccc(Br)cc12)c1ccc([N+](=O)[O-])cc1 is strictly below 80%.
Ans. fulfilled

Qu. Please indicate whether the reported growth of CCCCCCCCCCCCCCCC[N+]1(C)CCN(SN2CC[N+](C)(CCCCCCCCCCCCCCCC)CC2)CC1 is strictly below 80%.
Ans. fulfilled

Qu. Please indicate whether the reported growth of N#C/C(=C\c1ccc([N+](=O)[O-])s1)c1nc2cc(Cl)ccc2s1 is strictly below 80%.
Ans. fulfilled

Qu. Please indicate whether the reported growth of CNC(=O)c1cc(Cn2nc(C)c(NC(=O)Nc3ccc(Cl)c(C(F)(F)F)c3)c2C)ccn1 is strictly below 80%.
Ans. not fulfilled

Qu. Please indicate whether the reported growth of Cc1nc2sccn2c1-c1cn2ccsc2n1 is strictly below 80%.
Ans. fulfilled

Qu. Please indicate whether the reported growth of O=S(=O)(NCCCNc1nccc(-c2c(-c3cccc(F)c3)nc3sccn23)n1)c1cccc(F)c1 is strictly below 80%.
Ans. fulfilled

Qu. Please indicate whether the reported growth of CCOC(=O)[C@@H]1CCCN(S(=O)(=O)c2ccc(S(=O)(=O)N(CC)CC)c(F)c2)C1 is strictly below 80%.
Ans. not fulfilled

Qu. Please indicate whether the reported growth of COc1cc2c(c(OC)c1OC)CCC(c1cccc(NC(=O)c3cccc(Br)c3)c1)O2 (stereo not given) is strictly below 80%.
Ans. not fulfilled

Qu. Please indicate whether the reported growth of C=C1C(=O)O[C@H]2[C@H]1CC/C(CNC(=O)/C=C/c1ccccc1)=C\CC[C@@]1(C)O[C@@H]21 is strictly below 80%.
Ans. fulfilled

---

Test system: CCRF-CEM leukemia
Experiment notes: NCI-60 one-dose screen, 48 h (100 = growth as untreated, 0 = no growth, -100 = all killed)
Measurement setup: 10 µM unless noted
The panel holds about 83,000 compounds, 20% with a hit somewhere; the sample as a whole holds those more often. Activity calls are given as the source filed them. How the source made its calls: active means growth percent below 10; inactive means the rest.
Consider the following compounds; for each one, report its growth.

Compound: N#Cc1cc(-c2nc3ccccc3s2)c(=O)n(NS(=O)(=O)c2ccccc2)c1N
growth: 105% (inactive)
--
Compound: O=C(Nc1ccccc1)Nc1ccc2cc3ccc(NC(=O)Nc4ccccc4)cc3nc2c1
growth: 0.957% (active)
--
Compound: COc1cc(/C=C\C(=O)O)ccc1OCc1ccccc1
growth: 98.3% (inactive)
--
Compound: COc1cc(NC(C)CCCNC(=O)CCC(=O)NCCCNCCCCCCCCCCNCCCNC(=O)CCC(=O)NCCCC(C)Nc2cc(OC)cc3cccnc23)c2ncccc2c1 (stereo not given)
growth: 66.6% [8 µM] (inactive)

For every item in the list below, what is its measured growth?
1. NC1=NN=C(N)C1=Cc1cc2ccccc2n2nnnc12
2. CCCCCN1C=C/C(=C\C(=O)N(C)c2ccc(Oc3ccccc3)cc2)c2ccccc21
3. CCCCCC(=O)Oc1ccc(/C(=C(\C)c2ccccc2)c2ccc(OCCN3CCCCC3)cc2)cc1
4. CCCCCC(=O)Oc1ccc(/C(=C(/C)Cc2ccc(OC)cc2)c2ccc(OCCCN(C)C)cc2)cc1
5. CCCCCCCCOc1ccc(/C=N/Nc2cc(C)nc3ccc(Br)cc23)cc1
6. C=C(C)[C@@H]1CC[C@]2(C(=O)N3CCN(C)CC3)CC[C@]3(C)[C@H](CC[C@@H]4[C@@]5(C)CC[C@H](O)C(C)(C)[C@@H]5CC[C@]43C)[C@@H]12

Ans.
1. 97.5% (inactive)
2. 75.4% (inactive)
3. 85.1% (inactive)
4. 68.1% (inactive)
5. 7.66% (active)
6. -36.6% (active)

For every item in the list below, what is its measured growth?
1. COC(=O)C(OC(C)=O)C(OC(C)=O)c1ccc(OC)c(OC)c1 (stereo not given)
2. COc1cccc(-c2ccc3c(c2)NC(=O)/C3=C\c2ccc[nH]2)c1
3. COc1cc2nc(-c3ccc(Cl)cc3)cc(OCCCN3CCOCC3)c2cc1OC
4. Cn1cc(-c2csc(-c3c[nH]c4ccccc34)n2)c2ccnc(Cl)c21
5. COc1cc(/C=C\c2cc(OC)c(OC)c(OC)c2)cc(N)c1OC
6. Cc1nn(-c2ccccc2)c(Oc2c(Cl)cccc2Cl)c1/C=N/N=c1\sc2ccccc2n1C
7. Cc1ccc(-c2nc3ccccn3c2/C=C2/C(=O)Nc3cc(Cl)ccc32)cc1

Ans.
1: 94.9% (inactive); 2: 19% (inactive); 3: 61.4% (inactive); 4: 57.4% (inactive); 5: 74% (inactive); 6: 40.7% (inactive); 7: 56.2% (inactive)

For every item in the list below, what is its measured growth?
1. COc1ccc2c(c1)oc1c(C)c3c(c(C)c12)C(=O)N(N)C3=O
2. Cc1cc2nc3c4ccc(Br)cc4n(CCN(C)C)c3nc2cc1C
3. COc1ccc(NC(N)=NCCCOc2ccc(F)cc2)cc1

Ans.
1: 55.8% (inactive); 2: 12.7% (inactive); 3: 82.9% (inactive)

---

Tested on: BT-549 breast
Experiment notes: NCI-60 one-dose screen, 48 h (100 = growth as untreated, 0 = no growth, -100 = all killed)
Measurement setup: 10 µM unless noted
Compounds without any hit were thinned out: in the full panel of roughly 83,000, 20% have a hit.
Measured parameter: growth (%)
One number for each entry, in %.

Compound: CCN(CC)c1ccc(/C=N/NC(=O)CSc2nc3ccccc3c(=O)n2CCc2ccc(S(N)(=O)=O)cc2)c(O)c1
Unit abbreviation: %
growth: 45.2

For every item in the list below, what is its measured growth?
1. COc1cc2cc(Oc3cccc(NC(=O)Nc4cc(C(F)(F)F)cc(C(F)(F)F)c4)c3)c(C)nc2cc1OC
2. N#CC1C(C#N)C2c3ccccc3C=CN2C1C(=O)c1ccc(Br)cc1 (stereo not drawn)
3. N#C/C(=C\c1cccc(C#N)c1)c1ccccc1
4. COc1ccc(C(=O)CC#N)cc1
5. O=S(=O)(NCCNc1nccc(-c2c(-c3cccc(O)c3)nc3occn23)n1)c1cccc(F)c1
6. O=C(/C=C/c1ccc(Cl)cc1)c1ccc(NC(=O)N2CCN(c3cc4c(cc3F)c(=O)c(C(=O)O)cn4C3CC3)CC2)cc1
7. Cc1ccc(-n2cc(-c3ccccc3)c3c2N=NN2CCN=C32)cc1

Ans.
1.44
103
102
107
104
52.2
125

The measured values listed here are drawn from PubChem BioAssay (NCI).
